Experimental Target: S-methylmethionine--homocysteine S-methyltransferase BHMT2 (Homo sapiens)
Experiment Description: Inhibition of recombinant human BHMT2 expressed in Escherichia coli […] at 20 uM
Active and inactive are the calls of the source. The calls are words filed in the database; no cut-off is given here.
Readout Label: inhibition

CC(CCSCC[C@H](N)C(=O)O)CCC(N)C(=O)O (mixture of isomers); > 90%
N[C@@H](CCSCSCC[C@H](N)C(=O)O)C(=O)O; inactive
N[C@@H](CCSCCSCC[C@H](N)C(=O)O)C(=O)O; 60%
NC(CCSCCCCC(=O)O)C(=O)O (centres undefined); inactive
